# Test system: EBC-1 (human lung squamous cell carcinoma) xenograft
# RUN_DESCRIPTION: EBC-1 xenograft tumor growth inhibition
# Format: in vivo
# MEASUREMENT_SETUP: 10 mg/kg/day IP QDx1, SCID-bg mice
Could you please report measured Response Frequency PR (%) for the items listed next?
Answers are plain numbers, in %.

A selection of reference data follows.
MOLECULE	READOUT_UNITS	Response Frequency PR (%)
ChAb3-CZ (conjugate) VH: EVKLVESGGGLVQPGNSLRLSCATSGFTFIDYYMSWVRQSPGKALEWLGFIRNKANGYTTEYSASVKGRFTISRDNSQSILYLQMDTLRAEDSATYYCTRDRPAWFVYWGQGTLVTVSA VL: DIVMSQSPSSLAVSVGEKVTMSCKSSQSLLYSSNQKNYLAWYQQKPGQSPKLLIYWASTRESGVPDRFTGSGSGTDFTLTFSSVRAEDLAVYYCQQYYSYPYTFGGGTKLEIK	%	0
ChAb5-CZ (conjugate) VH: EVKLVESGGGLVQPGGSLRLSCATSGFTFTDYYMTWVRQPPGKALEWLGFIRNKANGYTTEYSASVKGRFTISRDNSLSILYLQMNTLRAEDSATYYCARASYVNSEGWFAYWGQGTLVTVSA VL: DIVMSQSPSSLAVSVGEKVTMSCKSSQSLLYSSNQKNYLAWYQQKLGQSPKLLIYWASTRESGVPDRFTGSGSGTDFTLTISSVKAEDLAVYYCQHYYSYPRTFGGGTKLEIK	%	0

IN: Look at this molecule and give its reported Response Frequency PR (%). ChAb12-CZ (conjugate) VH: EVQLVESGGGLVQPGRSLKLSCAASGFTFSDYAMAWVRQAPKKGLEWVASIIYDGRGTYYRDSVKGRFTISRDNAKSTLYLQMDSLRSEDTATYYCARQGDGTYYYWGSFDYWGQGVMVTVSS VL: DIVMTQSPSSLAVSAGETVTINCKSSQSLLSSGNQKNYLAWYQQKPGQSPKLLIYWASTRQSGVPDRFIGSGSGTDFTLTISSVQAEDLAIYHCQQYYDTPYTFGAGTKLELK
OUT: 25
